Documented kcat rel across a set of compounds
- test-target: cruzain (Trypanosoma cruzi)
- Sequence (P25779 123-467): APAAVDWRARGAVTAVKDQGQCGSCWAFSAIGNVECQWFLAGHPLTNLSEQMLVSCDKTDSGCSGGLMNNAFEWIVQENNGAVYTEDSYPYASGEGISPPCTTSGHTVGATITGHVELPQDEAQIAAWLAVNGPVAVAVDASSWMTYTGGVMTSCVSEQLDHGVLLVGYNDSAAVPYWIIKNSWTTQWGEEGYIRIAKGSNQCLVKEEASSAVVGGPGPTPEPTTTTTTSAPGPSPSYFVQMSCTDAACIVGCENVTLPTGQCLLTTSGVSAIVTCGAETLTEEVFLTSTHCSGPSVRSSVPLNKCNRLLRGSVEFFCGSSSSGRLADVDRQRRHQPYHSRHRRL
- assay-info: Cruzain-catalysed hydrolysis of fluorogenic dipeptide-AMC substrates
- Assay type: biochemical
- measurement-conditions: relative to S1 Cbz-Phe-Arg-AMC; S6 and S12 from 2% DMSO data
Where a SMILES comes first, the peptide text is derived from it. [ ]: non-standard residue; d: D form. The star is where a group is joined. hPhe = N[C@@H](CCc1ccccc1)C(=O)O; 4Pal = N[CH](Cc1ccncc1)C(=O)O; AMC = Cc1cc(=O)oc2cc(N*)ccc12; Cbz = O=C(OCc1ccccc1)*

>  <compound>
Cc1cc(=O)oc2cc(NC(=O)[C@H](Cc3ccccc3)NC(=O)[C@H](Cc3ccccc3)NC(=O)OCc3ccccc3)ccc12 [S9, Cbz-Phe-Phe-AMC] (Cbz-Phe-Phe-{AMC})

>  <kcat rel>
0.03

$$$$
>  <compound>
Cc1cc(=O)oc2cc(NC(=O)C(Cc3ccncc3)NC(=O)C(Cc3ccccc3)NC(=O)OCc3ccccc3)ccc12 (stereo not drawn) [S5, Cbz-Phe-(4-Pyr)Ala-AMC] (Cbz-Phe-[4Pal]-{AMC}; configuration not given here)

>  <kcat rel>
0.76

$$$$
>  <compound>
Cc1cc(=O)oc2cc(NC(=O)C(C)NC(=O)C(Cc3ccccc3)NC(=O)OCc3ccccc3)ccc12 (stereo not drawn) [S12, Cbz-Phe-Ala-AMC]

>  <kcat rel>
0.09

$$$$
>  <compound>
Cc1cc(=O)oc2cc(NC(=O)C(CCc3ccccc3)NC(=O)C(CCCN=C(N)N)NC(=O)OCc3ccccc3)ccc12 (stereo not drawn) [S10, Cbz-Arg-hPhe-AMC]

>  <kcat rel>
0.51

$$$$
>  <compound>
Cc1cc(=O)oc2cc(NC(=O)C(CCc3ccccc3)NC(=O)C(Cc3ccccc3)NC(=O)N3CCN(C)CC3)ccc12 (stereo not drawn) [S7, NMePip-Phe-hPhe-AMC]

>  <kcat rel>
0.42

$$$$
>  <compound>
Cc1cc(=O)oc2cc(NC(=O)[C@H](CCc3ccccc3)NC(=O)[C@H](Cc3ccccc3)NC(=O)OCc3ccccc3)ccc12 [S2, Cbz-Phe-hPhe-AMC] (Cbz-Phe-[hPhe]-{AMC})

>  <kcat rel>
0.21

$$$$
